// data source = a melting point compilation (Tetko et al.; mined from patent text by program, amines drawn as free bases though some values may be those of a salt)

Measured Metric: melting point

Please review the following examples before continuing.
Cn1cc2c(c(C#N)c1=O)Nc1ccccc1S2 | 292 to 295 °C
C[C@]12CC(I)C(=O)C=C1CC[C@@H]1[C@@H]2CC[C@]2(C)C(=O)CC[C@@H]12 (stereo not given in full) | 92 °C
Cc1cn(C(C)C(=O)N(C)C)nc1-c1ccc(Cl)cc1 (stereo not given) | 99.5 to 101 °C
CN(C(=O)Nc1ccsc1)c1cccc2cc(-c3nccs3)[nH]c12 | 266 °C
COC(=O)c1cnccc1SCc1ccc(OC)cc1 | 108 to 110 °C
O=C(O)c1coc2ccc3ccc(O)cc3c2c1=O | 294 to 296 °C
CCCN(CCC)NNc1nc(C(=O)c2ccccc2O)nc(C(=O)c2ccccc2O)n1 | 254 to 255 °C
O=C1C[C@@H](O)C[C@H](CCc2c(Cl)cc(Cl)c3ccc(Cl)cc23)O1 (relative stereo) | 111 to 115 °C

Problem: In one line, give reported melting point of the entry CC1(C2CC2)NC(=O)Nc2ccc(-c3cccc(Cl)c3)cc21 (stereo not given) .
Solution: 125 to 127 °C
